As shown below, each of these compounds has a reported EC50 value.
- PROTOCOL DESCRIPTION: luciferase reporter signal suppression in cells – H4 neuroglioma cells, luminescence, dose response (AID 1990)
- Type: functional, cell-based
Calls of active or inactive are those of the source. No stated cut-off is given here; in the data, actives have a measured EC50 and inactives only a lower limit.

Need EC50 of CC1CN(S(=O)(=O)c2ccc(C(=O)NCCCn3ccnc3)cc2)CC(C)O1 (centres undefined) , thanks.
11.1 µM (active)

Need EC50 of COc1ccc(C2=NOC(Cn3c(Cc4ccc(Cl)cc4)nc4c3c(=O)n(C)c(=O)n4C)C2)cc1 (centres undefined) , thanks.
> 120 µM (not active)

Need EC50 of CC(=O)Nc1nc2ccccc2n1Cc1ccccc1C , thanks.
14.5 µM (active)

Need EC50 of O=C(NC(Nc1nc2ccc([N+](=O)[O-])cc2s1)(C(F)(F)F)C(F)(F)F)c1ccccc1Cl , thanks.
0.266 µM (active)

The measured values listed here are drawn from ChEMBL document CHEMBL1201862.
